- ASSAYED_SYSTEM: cAMP and cAMP-inhibited cGMP 3',5'-cyclic phosphodiesterase 10A (Homo sapiens)
- Sequence (Q9Y233 whole entry): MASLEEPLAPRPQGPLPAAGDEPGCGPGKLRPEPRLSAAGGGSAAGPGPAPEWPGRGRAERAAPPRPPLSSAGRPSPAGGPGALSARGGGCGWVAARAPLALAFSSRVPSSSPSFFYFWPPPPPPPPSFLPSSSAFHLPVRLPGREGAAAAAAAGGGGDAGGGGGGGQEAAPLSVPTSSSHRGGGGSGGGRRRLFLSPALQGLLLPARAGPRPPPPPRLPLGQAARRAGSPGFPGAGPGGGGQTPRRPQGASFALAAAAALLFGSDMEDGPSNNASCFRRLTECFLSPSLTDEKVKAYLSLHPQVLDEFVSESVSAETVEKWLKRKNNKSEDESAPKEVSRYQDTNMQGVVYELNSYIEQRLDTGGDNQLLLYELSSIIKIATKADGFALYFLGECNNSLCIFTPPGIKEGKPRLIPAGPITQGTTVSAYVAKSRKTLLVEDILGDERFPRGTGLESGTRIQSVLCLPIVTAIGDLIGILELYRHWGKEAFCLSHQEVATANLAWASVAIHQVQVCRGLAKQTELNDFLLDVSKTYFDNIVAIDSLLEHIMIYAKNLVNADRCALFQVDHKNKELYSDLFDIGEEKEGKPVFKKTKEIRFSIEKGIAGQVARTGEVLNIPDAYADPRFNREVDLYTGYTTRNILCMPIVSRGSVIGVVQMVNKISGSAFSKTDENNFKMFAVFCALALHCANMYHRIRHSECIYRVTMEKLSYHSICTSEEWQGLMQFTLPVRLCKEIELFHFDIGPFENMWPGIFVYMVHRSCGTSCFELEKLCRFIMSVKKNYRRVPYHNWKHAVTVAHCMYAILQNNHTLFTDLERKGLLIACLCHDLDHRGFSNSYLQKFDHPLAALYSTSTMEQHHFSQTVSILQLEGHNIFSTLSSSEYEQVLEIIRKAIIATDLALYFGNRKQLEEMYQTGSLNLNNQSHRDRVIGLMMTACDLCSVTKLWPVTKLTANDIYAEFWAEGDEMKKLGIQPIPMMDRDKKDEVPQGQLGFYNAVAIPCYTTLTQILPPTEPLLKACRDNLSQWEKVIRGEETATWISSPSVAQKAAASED
- PROTOCOL_TEXT: Inhibition of recombinant PDE10A (unknown origin) using cAMP/cGMP as substrate incubated for 60 mins by HTRF assay
pIC50: −log10 of the molar value.
REPORTED_METRIC: pIC50

Worked cases, pIC50 given:
Challenge: Short answer please: pIC50, cAMP and cAMP-inhibited cGMP 3',5'-cyclic phosphodiesterase 10A (Homo sapiens), entry Cn1cc(-c2ccncc2)c(-c2ccc(C#Cc3nccn3C)cc2)n1
Response given: > 7.00

Challenge: And Cn1cc(-c2ccncc2)c(-c2ccc(C#Cc3nccs3)cc2)n1 ?
Response given: 6.70 to 7.00

Challenge: And Cc1cccc(C#Cc2ccc(-c3nn(C)cc3-c3cn[nH]c3)cc2)n1 ?
Response given: 6.30 to 6.70

More entries:
Challenge: Short answer please: pIC50, cAMP and cAMP-inhibited cGMP 3',5'-cyclic phosphodiesterase 10A (Homo sapiens), entry Cn1cc(-c2ccncc2)c(-c2ccc(C#Cc3ccccn3)cc2)n1
Response given: > 7.00

Challenge: And COc1cc(-c2nn(C)cc2-c2ccncc2)ccc1C#Cc1cccc(C)n1 ?
Response given: > 7.00

Challenge: And Cn1cc(-c2ccncc2)c(-c2ccc(C#Cc3ccc4ccccc4n3)cc2)n1 ?
Response given: > 7.00

Sourced from ChEMBL document CHEMBL4196227
